system: U251 CNS; assay: NCI-60 one-dose screen, 48 h (100 = growth as untreated, 0 = no growth, -100 = all killed); conditions: 10 µM unless noted
Compounds without any hit were thinned out: in the full panel of roughly 83,000, 20% have a hit.
Exercise: for every item that follows, state its recorded growth.
Respond with the bare value in %.

GET /values?readout=growth&item= O=[N+]([O-])c1cccc(-c2nc3sccn3c2-c2ccnc(NCCCNS(=O)(=O)c3ccc(Cl)cc3)n2)c1 87.8

What do we get for C=C1CCC2C(C)(CO)C(O)CCC2(C)C1C/C=C1/C(=O)OCC1Oc1ccccc1C (stereo not drawn) ? 88.4

What do we get for C=C[C@@H]1C[C@@H]2Cc3c(C)cc(C)cc3N1O2 ? 90.2
